Data origin: paper PMC13128454

Experiment: viability with doxycycline-inducible construct
Type: cell-based
Conditions: human, dox 1000; Concentration 10; read-out: mean_norm (normalized viability)
reported_property: viability (%)
# output: bare number, implied unit %

Output viability of CC[C@@H]1C(=O)N(C)c2cnc(Nc3ccc(C(=O)NC4CCN(C)CC4)cc3OC)nc2N1C1CCCC1 [BI2536] 10.7

----------
Experiment: CellTiter-Glo cell viability
Assay type: cell-based
Conditions: human, MCF7 cells, Concentration 10000, 4 day, read-out: mean_norm (normalized viability)
reported_property: viability at 4 day (%)
# output: bare number, implied unit %

Output viability at 4 day of CC[C@@H]1C(=O)N(C)c2cnc(Nc3ccc(C(=O)NCCOCCOCCOCCOCCC(=O)N4CCC(Nc5cccc6c5cc(C#CCNc5ccc(S(C)(=O)=O)cc5OC)n6CC(F)(F)F)CC4)cc3OC)nc2N1C1CCCC1 [p53-01, PMV6-PEG4-BI2536] 36.9

----------
Assay: CellTiter-Glo cell viability
Type: cell-based
Details: human, LNCaP cells, LNCAP; Concentration 625; 4 day; read-out: mean_norm (normalized viability)
reported_property: viability at 4 day (%)
# output: bare number, implied unit %

Output viability at 4 day of "CC[C@@H]1C(=O)N(C)c2cnc(Nc3ccc(C(=O)NCCOCCOCCOCCOCCC(=O)N4CCC(Nc5cccc6c5cc(C#CCNc5ccc(S(C)(=O)=O)cc5OC)n6CC(F)(F)F)CC4)cc3OC)nc2N1C1CCCC1" 108

----------
Assay: CellTiter-Glo cell viability
Type: cell-based
Conditions: human, Huh7 cells, Concentration 39.0625, 4 day, read-out: mean_norm (normalized viability)
reported_property: viability at 4 day (%)
# output: bare number, implied unit %

Output viability at 4 day of "CC[C@@H]1C(=O)N(C)c2cnc(Nc3ccc(C(=O)NCCOCCOCCOCCOCCC(=O)N4CCC(Nc5cccc6c5cc(C#CCNc5ccc(S(C)(=O)=O)cc5OC)n6CC(F)(F)F)CC4)cc3OC)nc2N1C1CCCC1" 110
